# Test system: KHOS-240S
# experimental.protocol: relative viability vs DMSO control (72 h) (fraction); higher = more viable cells
# experimental.setup: 0.00017 µM
Catalogue of relative viability values
quantity.kind: relative viability

* N#Cc1ccnc(N2C(=O)CC[C@H]2C(=O)N(c2cncc(F)c2)[C@H](C(=O)NC2CC(F)(F)C2)c2ccccc2Cl)c1 | 1.03
* Cc1cn(-c2cc(NC(=O)c3ccc(C)c(Nc4nccc(-c5cccnc5)n4)c3)cc(C(F)(F)F)c2)cn1 | 1.04
* CN(C)C[C@@H]1CCn2cc(c3ccccc32)C2=C(C(=O)NC2=O)c2cn(c3ccccc23)CCO1 | 1.04
* C[C@H]1Oc2cc(cnc2N)-c2c(nn(C)c2C#N)CN(C)C(=O)c2ccc(F)cc21 | 1.06
* CNC(=O)c1cc(Oc2ccc(NC(=O)Nc3ccc(Cl)c(C(F)(F)F)c3)cc2)ccn1 | 1.04
* CN1CCN(CCOc2cc(OC3CCOCC3)c3c(Nc4c(Cl)ccc5c4OCO5)ncnc3c2)CC1 | 1.07
* C[C@@H]1COC(Nc2ccc3ncnc(Nc4ccc(OCc5nccs5)c(Cl)c4)c3c2)=N1 | 1.02
* COc1cc2c(Oc3ccc4[nH]c(C)cc4c3F)ccnc2cc1OCC1(N)CC1 | 1.06
* Cc1cn(-c2cc(NC(=O)c3ccc(C)c(Nc4nccc(-c5cnccn5)n4)c3)cc(C(F)(F)F)c2)cn1 | 1.07
* CCCCCCCCCCCCCCCCCCOP(=O)([O-])OC1CC[N+](C)(C)CC1 | 1.09
* CCN(CCCOc1ccc2c(Nc3cc(CC(=O)Nc4cccc(F)c4)[nH]n3)ncnc2c1)CCOP(=O)(O)O | 1.04
* Cc1ccc(C(=O)OCc2ccc([C@@H](CN)C(=O)Nc3ccc4cnccc4c3)cc2)c(C)c1 | 1.06

* * *

// relative viability lookup, one value per entry
# System: VA-ES-BJ
# experimental.protocol: relative viability vs DMSO control (72 h) (fraction); higher = more viable cells
# experimental.setup: 0.00017 µM
quantity.kind: relative viability

- Cc1cn(-c2cc(NC(=O)c3ccc(C)c(Nc4nccc(-c5cccnc5)n4)c3)cc(C(F)(F)F)c2)cn1: 1.05
- C[C@@H]1COC(Nc2ccc3ncnc(Nc4ccc(OCc5nccs5)c(Cl)c4)c3c2)=N1: 1.06
- CO[C@@H]1[C@H](N(C)C(=O)c2ccccc2)C[C@H]2O[C@]1(C)n1c3ccccc3c3c4c(c5c6ccccc6n2c5c31)C(=O)NC4: 0.978
- Cc1c(F)cc(C(=O)NC2CC2)cc1-c1ccc(C(=O)NCC(C)(C)C)cn1: 1.11
- Cc1cc(Nc2ncc(Cl)c(Nc3ccccc3S(=O)(=O)C(C)C)n2)c(OC(C)C)cc1C1CCNCC1: 1.05
- COc1cc2ncnc(Nc3cccc(Cl)c3F)c2cc1OC(=O)N1CCN(C)C[C@H]1C: 1.03

* * *

# System: SK-LMS-1
# experimental.protocol: relative viability vs DMSO control (72 h) (fraction); higher = more viable cells
# experimental.setup: 0.04115 µM
For each record, check the reported relative viability: if it is below 1 write 1, else write -1.

• COc1cc2nccc(Oc3ccc(NC(=O)NC4CC4)c(Cl)c3)c2cc1C(N)=O = -1
• CCN(c1cc(-c2ccc(CN3CCOCC3)cc2)cc(C(=O)NCc2c(C)cc(C)[nH]c2=O)c1C)C1CCOCC1 = -1
• CO[C@H]1C[C@@H]2CC[C@@H](C)[C@@](O)(O2)C(=O)C(=O)N2CCCC[C@H]2C(=O)O[C@H]([C@H](C)C[C@@H]2CC[C@@H](O)[C@H](OC)C2)CC(=O)[C@H](C)/C=C(\C)[C@@H](O)[C@@H](OC)C(=O)[C@H](C)C[C@H](C)/C=C/C=C/C=C/1C = 1
• COc1cc(OC)cc(N(CCNC(C)C)c2ccc3ncc(-c4cnn(C)c4)nc3c2)c1 = 1
• CN(C)C[C@@H]1CCn2cc(c3ccccc32)C2=C(C(=O)NC2=O)c2cn(c3ccccc23)CCO1 = -1
